Here the recorded growth is given for each entry.
Tested on: EKVX NSCLC
Test: NCI-60 one-dose screen, 48 h (100 = growth as untreated, 0 = no growth, -100 = all killed)
Conditions: 10 µM unless noted
The panel holds about 83,000 compounds, 20% with a hit somewhere; the sample as a whole holds those more often.
Give the number; % is assumed, so skip it.

O=C(Nc1ccccc1)Nc1ccc(C(=O)/C=C/c2ccc(N3CCCC3)cc2)cc1	74.2
CC(=O)Nc1ccc2nc3ccc(NC(C)=O)cc3[n+](-c3ccccc3)c2c1	118
Cc1cc(-c2ccc(N=Nc3c(S(=O)(=O)O)cc4cc(S(=O)(=O)O)cc(N)c4c3O)c(C)c2)ccc1N=Nc1cc(S(=O)(=O)O)c2ccccc2c1O	81.1
COc1ccc(C(=O)CSc2nnc(-c3cc(-c4ccccc4)nc4ccccc34)o2)cc1	109
CCN=Cc1c(O)c(O)c(C(C)C)c2cc(C)c(-c3c(C)cc4c(C(C)C)c(O)c(O)c(C=NCC)c4c3O)c(O)c12	30.5
CCOc1ccccc1/C=N\Nc1ccc(S(=O)(=O)c2ccc(N/N=C/c3ccccc3OCC)cc2)cc1	90.7
C[N+](C)(C)c1ncnc2[n-]cnc12	81.8

Pending molecule:
-- ask Can you look up the measured growth of `C=C1C(=O)O[C@H]2[C@H]1CC/C(COC(=O)NCc1ccc(Cn3c(=O)sn(-c4ccc(Cl)cc4)c3=O)cc1)=C\CC[C@@]1(C)O[C@@H]21` for me?
-- reply 99.6

###

System: PC-3 prostate
Assay: NCI-60 one-dose screen, 48 h (100 = growth as untreated, 0 = no growth, -100 = all killed)
Details: 10 µM unless noted
About 83,000 compounds went through this panel and 20% of them were active in at least one assay; those are over-represented in the sample as a whole.
Flag rule - growth less than 40% flags MET; the remaining entries get NOT MET.

COc1ncc(-c2ccc3nccc(C#CCCCCC(=O)O)c3c2)cc1NS(=O)(=O)c1ccc(F)cc1F	MET
COC(=O)c1cc(O)c2c(c1C(=O)OC)C[C@H]1[C@@H]3CC=C4C[C@@H](O)CC[C@]4(C)[C@H]3CC[C@]21C	NOT MET
C=CCCCCOc1ccccc1-c1cnc(OCCCCC=C)n1C	NOT MET
Cc1cc(C)c(O)c(CNCCCCCCNCc2cc(C)cc(C)c2O)c1	MET
COc1ccc(-c2cc(-c3ccc(Cl)cc3)nc(NCCCCNc3ccnc4cc(Cl)ccc34)n2)cc1	NOT MET

Alright, here's another molecule for you.
-- ask Answer whether the molecule CC1Cc2c(Cl)ncnc2N(C)c2ccccc21 (stereo unspecified) has growth strictly less than 40%
-- reply MET

###

Tested on: HCT-15 colon
Assay: NCI-60 one-dose screen, 48 h
Settings: 10 µM unless noted
The panel holds about 83,000 compounds, 20% with a hit somewhere; the sample as a whole holds those more often. Calls of active or inactive are those of the source. The calls were made as follows: active = growth percent below 10; inactive = the rest.
Use one of these outcomes when replying: 1.0 for active, 0.0 for inactive

Cc1ccc(-c2cc(-c3ccc(C)cc3)nc(N3CCN(CCNc4ccnc5cc(Cl)ccc45)CC3)n2)cc1	0.0
O=C1Cc2c(sc3c(F)cccc23)C(c2ccccc2[N+](=O)[O-])N1 (stereo not drawn)	0.0
Cc1cc(C)nc(SCC(=O)Nc2cccc(N=Cc3ccccc3O)c2)n1	0.0
COc1cc2c(c(Br)c1N)-c1cc(Br)c(N)cc1C2=O	0.0
CCOC(=O)C(C(C)=O)c1nc2sc3cc(Cl)c(Cl)cc3n2c(=O)c1C#N (stereo not drawn)	0.0
CCc1ccc(NC(=O)N[C@@H](Cc2cc(F)cc(F)c2)C(=O)N[C@@H]2C(=O)N3C[C@H](O)C[C@H]3C(=O)N3CCOC[C@H]3C(=O)N[C@@H](C)C(=O)N3C[C@H](C)C[C@H]3C(=O)O[C@H]2C)cc1	0.0

-- ask # outcome recorded in this test, key = `O=C(N=c1n(-c2ccccc2)nc2n1CCN2C1=NCCN1)c1ccc(Cl)cc1`
-- reply 0.0

-- ask Now the same for `CC1(C)CC[C@]2(C(=O)O)CC[C@]3(C)[C@H](CC[C@@H]4[C@@]5(C)CCC(=O)C(C)(C)[C@@H]5CC[C@]43C)[C@H]2[C@H]1OC(=O)C(F)(F)F`
-- reply 1.0
